Where these numbers come from: paper PMC13210772

Entries annotated with measured 24 h- %
- Assay name: Non-enzymatic stability under cellular assay conditions (HPLC)
- Format: physicochemical
- Condition summary: compound remaining, assay medium DMEM, 37 °C, 24 h
Measured quantity: 24 h- % (%)

Compound | Measured quantity | Value measured
Cc1ncsc1-c1ccc([C@H](C)NC(=O)[C@@H]2C[C@@H](O)CN2C(=O)[C@@H](NC(=O)CCCCCCNC(=O)c2cc(Oc3ccc(NC(=O)Nc4cc(C(C)(C)C)on4)cc3)ccn2)C(C)(C)C)cc1 | 24 h- % | 99.9
Cc1ncsc1-c1ccc([C@H](C)NC(=O)[C@@H]2C[C@@H](O)CN2C(=O)[C@@H](NC(=O)[C@H]2CC[C@H](C(=O)N3CCN(CCNC(=O)c4cc(Oc5ccc(NC(=O)Nc6cc(C(C)(C)C)on6)cc5)ccn4)CC3)CC2)C(C)(C)C)cc1 | 24 h- % | 99.7
Cc1ncsc1-c1ccc([C@H](C)NC(=O)[C@@H]2C[C@@H](O)CN2C(=O)[C@@H](NC(=O)CCCCCCCNC(=O)c2cc(Oc3ccc(NC(=O)Nc4cccc(C(F)(F)F)c4)cc3)ccn2)C(C)(C)C)cc1 | 24 h- % | 100.2
CNC(=O)c1cc(Oc2ccc(NC(=O)Nc3cc(C(C)(C)C)on3)cc2)ccn1 [MA68, reference compound] | 24 h- % | 102.1
Cc1ncsc1-c1ccc([C@H](C)NC(=O)[C@@H]2C[C@@H](O)CN2C(=O)[C@@H](NC(=O)[C@H]2CC[C@H](C(=O)N3CCC(CCNC(=O)c4cc(Oc5ccc(NC(=O)Nc6cc(C(C)(C)C)on6)cc5)ccn4)CC3)CC2)C(C)(C)C)cc1 | 24 h- % | 104.4
Cc1ncsc1-c1ccc([C@H](C)NC(=O)[C@@H]2C[C@@H](O)CN2C(=O)[C@@H](NC(=O)CCOCCOCCNC(=O)c2cc(Oc3ccc(NC(=O)Nc4cc(C(C)(C)C)on4)cc3)ccn2)C(C)(C)C)cc1 | 24 h- % | 101.8
Cc1ncsc1-c1ccc([C@H](C)NC(=O)[C@@H]2C[C@@H](O)CN2C(=O)[C@@H](NC(=O)CCCCCNC(=O)c2cc(Oc3ccc(NC(=O)Nc4cc(C(C)(C)C)on4)cc3)ccn2)C(C)(C)C)cc1 | 24 h- % | 99.9

###

- Target or system: FLT3-ITD (Homo sapiens, UniProt P36888, INS600HVDFREYEYD)
- Sequence (P36888 with tags, fused parts or gaps with the stated changes): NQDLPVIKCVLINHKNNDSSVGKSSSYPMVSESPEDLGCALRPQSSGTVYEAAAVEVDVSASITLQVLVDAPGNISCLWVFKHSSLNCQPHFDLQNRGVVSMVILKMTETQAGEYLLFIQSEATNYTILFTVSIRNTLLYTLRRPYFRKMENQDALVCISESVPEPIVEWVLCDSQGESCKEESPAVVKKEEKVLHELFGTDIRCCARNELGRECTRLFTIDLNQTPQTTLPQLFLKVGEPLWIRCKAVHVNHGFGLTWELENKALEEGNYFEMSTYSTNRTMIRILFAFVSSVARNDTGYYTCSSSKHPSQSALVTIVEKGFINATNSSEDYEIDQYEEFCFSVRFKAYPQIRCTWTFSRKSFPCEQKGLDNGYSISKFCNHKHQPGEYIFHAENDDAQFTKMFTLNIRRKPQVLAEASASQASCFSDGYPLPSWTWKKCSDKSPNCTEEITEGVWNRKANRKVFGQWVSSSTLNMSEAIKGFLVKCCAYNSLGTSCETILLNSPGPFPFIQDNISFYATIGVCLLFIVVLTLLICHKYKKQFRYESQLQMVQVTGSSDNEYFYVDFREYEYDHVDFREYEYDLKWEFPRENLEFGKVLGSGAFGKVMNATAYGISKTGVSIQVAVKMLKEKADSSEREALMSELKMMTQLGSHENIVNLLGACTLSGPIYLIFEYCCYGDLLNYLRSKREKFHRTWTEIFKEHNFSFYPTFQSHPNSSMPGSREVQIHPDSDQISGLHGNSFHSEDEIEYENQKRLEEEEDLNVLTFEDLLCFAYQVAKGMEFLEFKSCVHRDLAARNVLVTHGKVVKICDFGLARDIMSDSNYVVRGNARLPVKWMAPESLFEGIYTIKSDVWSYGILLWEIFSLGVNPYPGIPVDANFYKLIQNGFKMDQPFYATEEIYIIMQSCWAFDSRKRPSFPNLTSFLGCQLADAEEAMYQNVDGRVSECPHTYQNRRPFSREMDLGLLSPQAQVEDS
- Assay name: FLT3-ITD degradation, immunoblot in MV4-11 cells
- Condition summary: MV4-11 cells, 50 nM, 24 h

Line notation | Target or system | FLT3-ITD degradation
Cc1ncsc1-c1ccc([C@H](C)NC(=O)[C@@H]2C[C@@H](O)CN2C(=O)[C@@H](NC(=O)[C@H]2CC[C@H](C(=O)N3CCN(CCNC(=O)c4cc(Oc5ccc(NC(=O)Nc6cc(C(C)(C)C)on6)cc5)ccn4)CC3)CC2)C(C)(C)C)cc1 | FLT3-ITD (Homo sapiens, UniProt P36888, INS600HVDFREYEYD) | eliminate FLT3-ITD
Cc1ncsc1-c1ccc([C@H](C)NC(=O)[C@@H]2C[C@@H](O)CN2C(=O)[C@@H](NC(=O)[C@H]2CC[C@H](C(=O)N3CCC(CCNC(=O)c4cc(Oc5ccc(NC(=O)Nc6cc(C(C)(C)C)on6)cc5)ccn4)CC3)CC2)C(C)(C)C)cc1 | FLT3-ITD (Homo sapiens, UniProt P36888, INS600HVDFREYEYD) | eliminate FLT3-ITD
